Here the recorded growth inhibition is given for each entry.
- test-method-notes: NCI Yeast Anticancer Drug Screen. Data for the cln2 rad14 strain (AID 165);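 also: 0% = growth equal to vehicle treated cultures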
- condition-context: S. cerevisiae cln2 rad14 strain, at 50.0 µM, stronger effect = higher value
The panel holds about 79,000 compounds, 15% with a hit somewhere; the sample as a whole holds those more often. Active and inactive are the calls of the source. Rule as the data show it: active = growth inhibition above about 70%; inactive = the rest.

// below: answered compounds
Cc1ccc(S(=O)(=O)OC2CC3c4ccccc4C2c2cccc[n+]23)cc1 (configuration not stated)	-18.4% (inactive)
Cc1ccc(-n2c(=O)[nH]c3ccccc3c2=O)cc1[N+](=O)[O-]	23.2% (inactive)
CC(=O)CC(C)C(=O)O (configuration not stated) (tested in a mixture with another compound)	-6.55% (inactive)

QUERY: Give the measured growth inhibition for O=C(O)CCCO
RESULT: 3.3% (inactive)

QUERY: Answer with reported growth inhibition of c1ccc2c3c(ccc2c1)NC1CCCN1C3 (configuration not stated)
RESULT: -38.8% (inactive)

QUERY: Note down growth inhibition recorded for [Cl][Pt][Cl].c1ccc([PH+](c2ccccc2)c2ccccc2)cc1.c1ccc([PH+](c2ccccc2)c2ccccc2)cc1
RESULT: -6.6% (inactive)

QUERY: Using the record for NCCCC(N)P(=O)(O)O (configuration not stated) , state its measured growth inhibition.
RESULT: -106% (inactive)
